B1: TRAF3IP2 (parent)
chain: KEHVPTWLQNTHVYSWPKNKKNIL

Variants of: B1
Assay: protein stability index of a GFP-peptide fusion (GPS, HEK-293T) (PSI 1-6); higher = more stable;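 note: lentivirally expressed fusions sorted by FACS into six bins by GFP to DsRed ratio, PSI derived from sequencing read proportions per bin multiplied by bin number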
Conditions: c terminus: a fixed tail appended
assay-metric: protein stability index

[[record]]
variant_name = "V4M"
assay_metric = "protein stability index"
quantitative_result = 2.35

[[record]]
variant_name = "P17A"
assay_metric = "protein stability index"
quantitative_result = 2.22

[[record]]
variant_name = "T11Y"
assay_metric = "protein stability index"
quantitative_result = 2.36

[[record]]
variant_name = "L24P"
assay_metric = "protein stability index"
quantitative_result = 2.98

[[record]]
variant_name = "S15D"
assay_metric = "protein stability index"
quantitative_result = 2.89

[[record]]
variant_name = "H3Y"
assay_metric = "protein stability index"
quantitative_result = 2.03

[[record]]
variant_name = "W16L"
assay_metric = "protein stability index"
quantitative_result = 3.02

[[record]]
variant_name = "P5D"
assay_metric = "protein stability index"
quantitative_result = 3.08

[[record]]
variant_name = "N10K"
assay_metric = "protein stability index"
quantitative_result = 2.04

[[record]]
variant_name = "W7E"
assay_metric = "protein stability index"
quantitative_result = 3.97

[[record]]
variant_name = "H12F"
assay_metric = "protein stability index"
quantitative_result = 2.13

[[record]]
variant_name = "K21R"
assay_metric = "protein stability index"
quantitative_result = 2.05

[[record]]
variant_name = "S15N"
assay_metric = "protein stability index"
quantitative_result = 2.21

[[record]]
variant_name = "P5N"
assay_metric = "protein stability index"
quantitative_result = 2.26

[[record]]
variant_name = "P5C"
assay_metric = "protein stability index"
quantitative_result = 1.96

[[record]]
variant_name = "P17D"
assay_metric = "protein stability index"
quantitative_result = 2.71

[[record]]
variant_name = "V13N"
assay_metric = "protein stability index"
quantitative_result = 2.11

[[record]]
variant_name = "V4G"
assay_metric = "protein stability index"
quantitative_result = 2.81

[[record]]
variant_name = "K21T"
assay_metric = "protein stability index"
quantitative_result = 2.65

[[record]]
variant_name = "P5W"
assay_metric = "protein stability index"
quantitative_result = 2.76

[[record]]
variant_name = "Y14V"
assay_metric = "protein stability index"
quantitative_result = 2.69

[[record]]
variant_name = "K1N"
assay_metric = "protein stability index"
quantitative_result = 3.12


The reported numbers originate from the supplement of paper PMC10567573.
